tested on: Escherichia coli; experiment: Tested for minimum inhibitory concentration against Escherichia coli DCO; format: functional

[
  {
    "Mol smiles": "CC1(C)S[C@@H]2[C@H](NC(=O)[C@@H](CCCCN)c3ccccc3)C(=O)N2[C@H]1C(=O)O",
    "Units of measure": "µg/mL",
    "Measurement qualifier": "=",
    "MIC": 100
  },
  {
    "Mol smiles": "CC1(C)S[C@@H]2[C@H](NC(=O)Cc3ccccc3)C(=O)N2[C@H]1C(=O)O",
    "Units of measure": "µg/mL",
    "Measurement qualifier": "=",
    "MIC": 50
  },
  {
    "Mol smiles": "CC(=O)NCCCC[C@@H](C(=O)N[C@@H]1C(=O)N2[C@@H]1SC(C)(C)[C@@H]2C(=O)O)c1ccccc1",
    "Units of measure": "µg/mL",
    "Measurement qualifier": ">",
    "MIC": 100
  },
  {
    "Mol smiles": "CC(=O)NCCCC[C@H](C(=O)N[C@@H]1C(=O)N2[C@@H]1SC(C)(C)[C@@H]2C(=O)O)c1ccccc1",
    "Units of measure": "µg/mL",
    "Measurement qualifier": ">",
    "MIC": 100
  },
  {
    "Mol smiles": "CC1(C)S[C@@H]2[C@H](NC(=O)[C@H](CCCCN)c3ccccc3)C(=O)N2[C@H]1C(=O)O",
    "Units of measure": "µg/mL",
    "Measurement qualifier": ">",
    "MIC": 100
  }
]

----------
Quick reference for Concentration among some compounds
system: Staphylococcus aureus; test: Concentration required for 90 percent inhibition of [14C]- pen-G binding to Staphylococcus aureus ATCC 25293 PBP1 87 KDa

[
  {
    "Mol smiles": "CC1(C)S[C@@H]2[C@H](NC(=O)[C@H](CCCCN)c3ccccc3)C(=O)N2[C@H]1C(=O)O",
    "Units of measure": "µg/mL",
    "Concentration": 100
  },
  {
    "Mol smiles": "CC1(C)S[C@@H]2[C@H](NC(=O)Cc3ccccc3)C(=O)N2[C@H]1C(=O)O",
    "Units of measure": "µg/mL",
    "Concentration": 0.1
  },
  {
    "Mol smiles": "CC(=O)NCCCC[C@@H](C(=O)N[C@@H]1C(=O)N2[C@@H]1SC(C)(C)[C@@H]2C(=O)O)c1ccccc1",
    "Units of measure": "µg/mL",
    "Concentration": 100
  },
  {
    "Mol smiles": "CC1(C)S[C@@H]2[C@H](NC(=O)[C@H](N)c3ccccc3)C(=O)N2[C@H]1C(=O)O",
    "Units of measure": "µg/mL",
    "Concentration": 0.1
  },
  {
    "Mol smiles": "CC(=O)NCCCC[C@H](C(=O)N[C@@H]1C(=O)N2[C@@H]1SC(C)(C)[C@@H]2C(=O)O)c1ccccc1",
    "Units of measure": "µg/mL",
    "Concentration": 30
  },
  {
    "Mol smiles": "CC1(C)S[C@@H]2[C@H](NC(=O)[C@@H](CCCCN)c3ccccc3)C(=O)N2[C@H]1C(=O)O",
    "Units of measure": "µg/mL",
    "Concentration": 30
  }
]

This collection of values is drawn from ChEMBL document CHEMBL1151601.
